- target: T1, ZFP SBS#1379 (synthetic)
- T1 chain: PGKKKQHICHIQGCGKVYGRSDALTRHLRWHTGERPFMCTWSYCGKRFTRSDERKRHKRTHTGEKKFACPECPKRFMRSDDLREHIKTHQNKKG
- assaySummary: EMSA
- experimentalConditions: tags: MBP fusion
quantityName: Kd (nM)
One number for each entry, in nM.

QUERY: Data request, read-out Kd, for CCGGCGGTG (dsDNA) DNA 1: CCGGCGGTG DNA 2: CACCGCCGG
RESULT: 0.25
